System: RPMI-8226 leukemia
Test: NCI-60 one-dose screen, 48 h (100 = growth as untreated, 0 = no growth, -100 = all killed)
Conditions: 10 µM unless noted
Method: Growth inhibition of the RPMI-8226 human tumor cell line is measured as a screen for anti-cancer activity. Cells are grown in 96 well plates and exposed to the test compound for 48 hours. Compounds are tested at a single concentration, which is 10^-5 M for most compounds. The reported endpoint is percent growth (GI% or GIPRCNT), where numbers from 0 - 100% represent growth inhibition, and numbers from -100% - 0 represent cell death. For example, a value of 40 represents 60% growth inhibition. […]
Compounds without any hit were thinned out: in the full panel of roughly 83,000, 20% have a hit.
Quick reference for growth among some compounds
Expressed in %, but write only the number.

Use these answered entries as a reference point.
CN1CCN(c2ccc3c(c2)nc(NNC(=O)c2cnccn2)c2cccn23)CC1 : 45.3
O=C(Cn1nnc2ccccc21)N/N=C/c1ccccc1F : 101
CCN=C1C=CC(=C(c2ccc(N(C)C)cc2)c2ccc(N(C)C)cc2)c2ccccc21 : -22.9
N#C/C(=C\c1ccc(Br)cc1)c1cc2ccccc2[nH]1 : 78.9

Proceeding to the next compound to report its growth.
growth reading for CC1CN=C(c2cccc(-c3ccc(-c4ccccc4)o3)c2)N1 (stereo not given) : -26.3

###

Tested on: MOLT-4 leukemia
Test: NCI-60 one-dose screen, 48 h (100 = growth as untreated, 0 = no growth, -100 = all killed)
Settings: 10 µM unless noted
Compounds without any hit were thinned out: in the full panel of roughly 83,000, 20% have a hit.
Quick reference for growth among some compounds
Expressed in %, but write only the number.

Use these answered entries as a reference point.
CCCCCCCCn1ccc2cc(NC(=O)Cn3cc(CN4CCC(C)CC4)nn3)ccc21 : 3.1
Cc1c(N2CN3C[C@H](C)N4CN(c5c(C)n(C)n(-c6ccccc6)c5=O)CN5C[C@@H](C)N(C2)C3C54)c(=O)n(-c2ccccc2)n1C (stereo partly drawn) : -17.9
NNC(=S)N/N=C/c1ccccn1 : 12
O=C1Nc2ccc(F)cc2/C1=C\c1nc(-c2ccccc2F)n2ccccc12 : 81.2
O=C1/C(=C/c2ccc(C(F)(F)F)cc2)COc2ccc(O)cc21 : 4.15

growth reading for `COc1ccc2nc3ccccc3c(NCc3ccccc3)c2c1` : 8.01

growth reading for `CCn1c2ccc(O)cc2c2c(C)c3c[n+](C(C)C)ccc3c(C)c21` : 22.2

growth reading for `CN(C)c1ccc(/C=C/C(=O)c2ccc(Nc3nc(Nc4ccc(F)cc4)nc(Nc4ccc(Cl)cc4)n3)cc2)cc1` : -3.06

growth reading for `CC/C=C\C/C=C/C=C1/C(=O)C=C[C@@H]1C/C=C\CCCC(=O)OC` : 5.5

growth reading for `O=C(OC[C@@H]1CO1)c1cccc2c(=O)c3ccccc3[nH]c12` : 1.32

growth reading for `COC(=O)/C=C1/SC(=Nc2cccc(Cl)c2)N(CCc2c[nH]c3ccc(O)cc23)C1=O` : -8.3

growth reading for `CN(CCC#N)c1ccc(/C=C2\NC(=O)NC2=O)cc1` : 92

growth reading for Cc1ccc(-c2cc(C(=O)N3N=C(c4ccc(N)cc4)CC3c3ccc(Cl)cc3)c3ccccc3n2)cc1 (stereo not drawn) : 25.2

###

Tested on: CCRF-CEM leukemia
Assay: NCI-60 one-dose screen, 48 h (100 = growth as untreated, 0 = no growth, -100 = all killed)
Conditions: 10 µM unless noted
This is part of a sample that, as a whole, favours compounds with a hit. Of some 83,000 tested, about 20% had one in any assay.
property: growth (%)
Expressed in %, but write only the number.

Use these answered entries as a reference point.
C=CC(C)(O)CC/C=C(\CO)C(=O)OC1C(C)OC(O[C@](C)(C=C)CC/C=C(\CO)C(=O)O[C@H]2C[C@@]3(C(=O)OC4OC(CO)C(O)C(O)C4OC4OC(C)C(OC5OC(CO)C(O)C5O)C(OC5OC(CO)C(O)C(O)C5O)C4O)C(CC2(C)C)C2=CCC4[C@@]5(C)CC[C@H](OC6OC(COC7OC(C)C(O)C(O)C7OC7OCC(O)C(O)C7O)C(O)C(O)C6NC(C)=O)C(C)(C)C5CC[C@@]4(C)[C@]2(C)C[C@H]3O)C(O)C1O (some centres not stated) : -17.1
CCc1ccc(CCC(=O)Nc2ncc(Cc3ccc(Cl)cc3)s2)o1 : 22.4
COC(=O)Cc1nc(C#N)c(N(C)C)o1 : 92.9
Cc1cccc(N2CCN(C(=S)c3ccc4c(c3)OCO4)CC2)c1 : 16.5
C=C1C(=O)O[C@H]2[C@H]1CC/C(COC(=O)/C=C\C(=O)NCc1ccc(Cn3c(=O)sn(-c4ccccc4)c3=O)cc1)=C\CC[C@@]1(C)O[C@@H]21 : 1.9
C=C(c1ccc(C(=O)O)cn1)c1cc2c(cc1C)C(C)(C)CCC2(C)C : 83.5

growth reading for CC1CN=C(c2cccc(-c3ccc(-c4ccccc4)o3)c2)N1 (configuration not stated) : -13.4

###

Quick reference for growth among some molecules
System: OVCAR-4 ovarian
Experiment: NCI-60 one-dose screen, 48 h (100 = growth as untreated, 0 = no growth, -100 = all killed)
Conditions: 10 µM unless noted
About 83,000 compounds went through this panel and 20% of them were active in at least one assay; those are over-represented in the sample as a whole.
Expressed in %, but write only the number.

O=P(O)(O)OCC1OC(n2cnc3c(NCc4ccccc4)ncnc32)C(O)C1O (centres undefined) : 25.5
Oc1c(Cl)cc(Cl)c2ccc(Cn3cc(-c4cccc(C(F)(F)F)c4)nn3)nc12 : 65.9
N#Cc1nc(-c2ccc(F)cc2)oc1S(=O)(=O)N1CCN(c2ccc(F)cc2)CC1 : 105
Cc1ccc(S(=O)(=O)n2cc(C3C(Cl)C(=O)N3c3ccc(N4CCOCC4=O)cc3)c3ccccc32)cc1 (centres undefined) : 52.4
CCCCCn1sc(=O)n(Cc2ccc(CNC(=O)OCc3ccc4c(Cl)cc(Cl)c(O)c4n3)cc2)c1=O : 66.4
Fc1ccc2c(c1)c(-c1nc(-c3c[nH]c4ncccc34)cs1)cn2CCCN1CCOCC1 : 56.2

growth reading for COc1ccc(C2CC(c3ccc(Nc4nc(Nc5ccc(F)cc5)nc(Nc5ccc(F)cc5)n4)cc3)=NN2C(C)=O)cc1 (centres undefined) : 98.1

growth reading for `COC(=O)c1nc(-c2ccccc2)oc1S(=O)(=O)N1CCC(C(N)=O)CC1` : 61.2

growth reading for `CNCc1cccc2c1OCCOCCN(C)C(=O)CN(C)S(=O)(=O)c1ccc(cc1)-c1cnc(N)c(n1)C(=O)N2` : 42.4

growth reading for `COc1ccc(NC(=O)c2ccc(C(=O)Nc3ccc(OC)cc3OC)cc2)c(OC)c1` : 88.2

growth reading for `CCCCSCC(=O)c1ccccc1` : 100

growth reading for `CC(C)(C)C(=O)/C=C/c1ccc([N+](=O)[O-])cc1` : 91.5

growth reading for `Cc1[nH]c(C(=O)Nc2ccc(C(N)=O)cc2NC(C)C)c(Cl)c1Cl` : 92.4

growth reading for `COc1ccc2cc(Cn3cc[n+](Cc4ccc5ccccc5c4)c3)ccc2c1` : 8.75

###

System: MDA-MB-435 melanoma
Experiment: NCI-60 one-dose screen, 48 h (100 = growth as untreated, 0 = no growth, -100 = all killed)
Settings: 10 µM unless noted
Protocol: Growth inhibition of the MDA-MB-435 human Melanoma tumor cell line is measured as a screen for anti-cancer activity. Cells are grown in 96 well plates and exposed to the test compound for 48 hours. Compounds are tested at a single concentration, which is 10^-5 M for most compounds. The reported endpoint is percent growth (GI% or GIPRCNT), where numbers from 0 - 100% represent growth inhibition, and numbers from -100% - 0 represent cell death. […]
This is part of a sample that, as a whole, favours compounds with a hit. Of some 83,000 tested, about 20% had one in any assay.
Rule: growth of -20% or more gives 1; anything lower gives 0.

COc1cccc2c(N=NC(=O)c3ccc(S(N)(=O)=O)cc3)c(O)[nH]c12 : 1

Qu. Does the reported growth for `CN1CCN(Cc2cc(NC(=O)c3cccc(C#Cc4cccc5[nH]nc(N)c45)c3)cc(C(F)(F)F)c2)CC1` fall at or above the -20% mark?
Ans. 0

Qu. Does the reported growth for `O=C1C(Cl)=C(NCCN2CCOCC2)C(=O)c2ncccc21` fall at or above the -20% mark?
Ans. 1

Qu. Does the reported growth for CCN1C(=S)N(CC)C2C1NC(=S)N2/N=C/C=C/c1ccccc1OC (configuration not stated) fall at or above the -20% mark?
Ans. 0

Qu. Does the reported growth for `COCC[C@H]1CCC/C=C/[C@@H]2C[C@H](O)C[C@H]2[C@H](O)/C=C/C(=O)O1` fall at or above the -20% mark?
Ans. 1

Qu. Does the reported growth for `O=C(CCCCCCN1CC(=O)N2[C@@H](C3CCCCC3)c3[nH]c4ccccc4c3C[C@H]2C1=O)NO` fall at or above the -20% mark?
Ans. 1

Qu. Does the reported growth for `COc1ccc(/C=C/C(=O)c2cc3c(N)c(C(=O)Nc4ccc(OC)cc4)sc3nc2C)cc1` fall at or above the -20% mark?
Ans. 0
